Data provenance: patent US20030072726A1

EXPERIMENT_SUMMARY: Solubilities of compounds of the invention
Type: physicochemical
MEASUREMENT_PARAMETERS: oil, oil or lipid; read-out: Solubility Oil

MOLECULE	solubility
O=C(O)c1ccc(O)c(O)c1 [Protocatechuic acid, 3,4-Dihydroxybenzoic acid]	< 0.2 mg/mL
C=Cc1ccc(O)c(OC)c1	> 50 mg/mL
